Origin of the recorded values: patent US20240059799A1

measuredOn: T1, recombinant human TL1A (human, UniProt O95150 71-251)
T1 construct: The ELISA method says only 'recombinant TL1A' coated on plates; homotrimeric cytokine; also called TNFSF15; recombinant TL1A
T1 chain: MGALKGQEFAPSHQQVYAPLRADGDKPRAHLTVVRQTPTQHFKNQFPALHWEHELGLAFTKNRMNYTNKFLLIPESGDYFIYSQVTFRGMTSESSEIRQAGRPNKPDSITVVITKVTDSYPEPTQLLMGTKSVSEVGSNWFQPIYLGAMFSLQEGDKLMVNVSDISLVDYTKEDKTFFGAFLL
testDetails: competition ELISA on coated recombinant TL1A; competitor biotinylated TL1A-0002
Reported IC50 values follow for various binders
Enter your answer as a number in nM; do not include the unit.

Q: IC50 lookup needed for TL1A-0266 (antibody, human IgG1, kappa, V domains shown, human IgG1 effector-function-minimized / human kappa) VH: QVQLVQSGAEVKKPGASVKVSCKASGYDYTYYGISWVRQAPGQGLEWMGWISTYNTNTHYAPSLQGRVTMTTDTSTSTAYMELRSLRSDDTAVYYCARESYYGSGAFRGGMDVWGQGTTVTVSS VL: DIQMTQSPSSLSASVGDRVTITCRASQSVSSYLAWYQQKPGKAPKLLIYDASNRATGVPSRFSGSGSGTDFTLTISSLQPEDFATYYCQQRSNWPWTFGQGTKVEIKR , thanks.
Ans: 6.6

Q: Fill in: IC50 of TL1A-0253 (antibody, V domains shown, IgG1 effector-minimized/kappa) VH: QVQLVQSGAEVKKPGASVKVSCKASGYDFTYYGISWVRQAPGQGLEWMGWISTYNTNTHYAPSLQGRVTMTTDTSTSTAYMELRSLRSDDTAVYYCARESYYGSGAHRGGMDVWGQGTTVTVSS VL: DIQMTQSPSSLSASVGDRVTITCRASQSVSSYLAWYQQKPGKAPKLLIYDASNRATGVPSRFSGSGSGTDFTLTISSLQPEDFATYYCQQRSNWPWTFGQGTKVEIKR is ___
Ans: 13.4

Q: Could you share which IC50 value was measured for TL1A-0281 (antibody, human IgG1, kappa, V domains shown, human IgG1 effector-function-minimized / human kappa) VH: QVQLVQSGAEVKKPGASVKVSCKASGYDFSYYGISWVRQAPGQGLEWMGWISTYNTNTHYAPSLQGRVTMTTDTSTSTAYMELRSLRSDDTAVYYCARESYYGSGAHRGGMDVWGQGTTVTVSS VL: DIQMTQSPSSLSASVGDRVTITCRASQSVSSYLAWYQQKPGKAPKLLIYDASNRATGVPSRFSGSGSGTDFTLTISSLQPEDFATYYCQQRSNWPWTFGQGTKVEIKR ?
Ans: 13.1

Q: Please report the recorded IC50 for TL1A-0293 (antibody, human IgG1, kappa, V domains shown, human IgG1 effector-function-minimized / human kappa) VH: QVQLVQSGAEVKKPGASVKVSCKASGYDFTYYGVSWVRQAPGQGLEWMGWISTYNTVTHYAPSLQGRVTMTTDTSTSTAYMELRSLRSDDTAVYYCARESYYGSGAHRGGMDVWGQGTTVTVSS VL: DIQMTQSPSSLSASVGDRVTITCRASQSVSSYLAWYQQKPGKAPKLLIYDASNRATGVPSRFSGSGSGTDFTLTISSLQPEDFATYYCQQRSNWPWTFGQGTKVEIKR .
Ans: 9.7

Q: Value lookup for IC50; key = TL1A-0265 (antibody, human IgG1, kappa, V domains shown, human IgG1 effector-function-minimized / human kappa) VH: QVQLVQSGAEVKKPGASVKVSCKASGYDYTYYGISWVRQAPGQGLEWMGWISTYNTVTHYAPSLQGRVTMTTDTSTSTAYMELRSLRSDDTAVYYCARESYYGSGAHRGGMDVWGQGTTVTVSS VL: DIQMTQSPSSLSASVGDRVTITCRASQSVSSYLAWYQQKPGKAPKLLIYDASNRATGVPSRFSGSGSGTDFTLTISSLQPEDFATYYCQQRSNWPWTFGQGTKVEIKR
Ans: 8.7

Q: Look up IC50: TL1A-0278 (antibody, human IgG1, kappa, V domains shown, human IgG1 effector-function-minimized / human kappa) VH: QVQLVQSGAEVKKPGASVKVSCKASGYDFSYYGISWVRQAPGQGLEWMGWISTYNTVTHYAPSLQGRVTMTTDTSTSTAYMELRSLRSDDTAVYYCARESYYGSGAFRGGMDVWGQGTTVTVSS VL: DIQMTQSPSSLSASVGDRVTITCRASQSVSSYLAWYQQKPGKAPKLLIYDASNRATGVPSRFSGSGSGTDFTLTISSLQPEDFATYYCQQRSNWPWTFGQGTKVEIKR
Ans: 9.1

Q: Param item = TL1A-0292 (antibody, human IgG1, kappa, V domains shown, human IgG1 effector-function-minimized / human kappa) VH: QVQLVQSGAEVKKPGASVKVSCKASGYDFTYYGVSWVRQAPGQGLEWMGWISTYNTVTHYAPSLQGRVTMTTDTSTSTAYMELRSLRSDDTAVYYCARESYYGSGAFRGGMDVWGQGTTVTVSS VL: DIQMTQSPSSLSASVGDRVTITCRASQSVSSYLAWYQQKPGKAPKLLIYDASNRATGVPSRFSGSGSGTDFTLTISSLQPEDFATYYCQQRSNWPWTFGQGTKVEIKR ; retrieve measured IC50.
Ans: 9.6
